All figures here come from patent EP4647082A1.

Assay: Phase I first-in-human study, pharmacokinetics after single ascending subcutaneous doses in healthy volunteers
Type: in vivo
Conditions: human, plasma; single SC dose 2 mg; mean
Bridge positions count the residues as written; N and C are the ends. Square brackets hold non-standard residues; d marks the D form. Peptide text beside a SMILES is read from it. * marks the point of attachment. Phe(2-CONH2) = NC(=O)c1ccccc1C[C@H](N)C(=O)O; Orn(iPr) = CC(C)NCCC[C@H](N)C(=O)O; Oxazole2carbonyl = O=C(c1ncco1)*; 3Pal = N[C@@H](Cc1cccnc1)C(=O)O
endpointName: Cmax (ng/mL)
Reply numerically in ng/mL, unit not repeated.

Per the records, this compound ( CC(C)NCCC[C@@H]1NC(=O)[C@@H](NC(=O)[C@H](Cc2ccccc2C(N)=O)NC(=O)[C@H](NC(=O)c2ncco2)C(C)C)CSSC[C@@H](C(=O)N[C@@H](Cc2cccnc2)C(N)=O)NC(=O)[C@H](Cc2ccccc2)NC(=O)[C@@H]2CCCN2C(=O)CNC(=O)[C@H](C(C)C)NC(=O)[C@H](CC(=O)O)NC1=O [AXN-001] (Oxazole2carbonyl-[dV][Phe(2-CONH2)]C[Orn(iPr)]DVGPFC[3Pal]-NH2; disulfide 3-10) ) has Cmax equal to 65

###

Experiment: Phase I first-in-human study, pharmacokinetics after single ascending subcutaneous doses in healthy volunteers
Assay type: in vivo
Conditions: human, plasma; single SC dose 16 mg; nominal time 0.50 h; mean; read-out: Plasma Concentration AXN-001
Bridge positions count the residues as written; N and C are the ends. Square brackets hold non-standard residues; d marks the D form. Peptide text beside a SMILES is read from it. * marks the point of attachment. Phe(2-CONH2) = NC(=O)c1ccccc1C[C@H](N)C(=O)O; Orn(iPr) = CC(C)NCCC[C@H](N)C(=O)O; Oxazole2carbonyl = O=C(c1ncco1)*; 3Pal = N[C@@H](Cc1cccnc1)C(=O)O
endpointName: level at 0.5 h
Could you kindly put the unit after your number?

The measured level at 0.5 h associated with CC(C)NCCC[C@@H]1NC(=O)[C@@H](NC(=O)[C@H](Cc2ccccc2C(N)=O)NC(=O)[C@H](NC(=O)c2ncco2)C(C)C)CSSC[C@@H](C(=O)N[C@@H](Cc2cccnc2)C(N)=O)NC(=O)[C@H](Cc2ccccc2)NC(=O)[C@@H]2CCCN2C(=O)CNC(=O)[C@H](C(C)C)NC(=O)[C@H](CC(=O)O)NC1=O [AXN-001] (Oxazole2carbonyl-[dV][Phe(2-CONH2)]C[Orn(iPr)]DVGPFC[3Pal]-NH2; disulfide 3-10) reads 294 ng/mL

###

Experiment: Phase I first-in-human study, pharmacokinetics after single ascending subcutaneous doses in healthy volunteers
Format: in vivo
Conditions: human, plasma; single SC dose 2 mg; mean
Bridge positions count the residues as written; N and C are the ends. Square brackets hold non-standard residues; d marks the D form. Peptide text beside a SMILES is read from it. * marks the point of attachment. Phe(2-CONH2) = NC(=O)c1ccccc1C[C@H](N)C(=O)O; Orn(iPr) = CC(C)NCCC[C@H](N)C(=O)O; Oxazole2carbonyl = O=C(c1ncco1)*; 3Pal = N[C@@H](Cc1cccnc1)C(=O)O
endpointName: CL/F (mL/min)
Field format: number, assumed mL/min, no unit text.

Record CC(C)NCCC[C@@H]1NC(=O)[C@@H](NC(=O)[C@H](Cc2ccccc2C(N)=O)NC(=O)[C@H](NC(=O)c2ncco2)C(C)C)CSSC[C@@H](C(=O)N[C@@H](Cc2cccnc2)C(N)=O)NC(=O)[C@H](Cc2ccccc2)NC(=O)[C@@H]2CCCN2C(=O)CNC(=O)[C@H](C(C)C)NC(=O)[C@H](CC(=O)O)NC1=O [AXN-001] (Oxazole2carbonyl-[dV][Phe(2-CONH2)]C[Orn(iPr)]DVGPFC[3Pal]-NH2; disulfide 3-10) . Reported CL/F: 210

###

Experiment: Phase I first-in-human study, pharmacokinetics after single ascending subcutaneous doses in healthy volunteers
Format: in vivo
Conditions: human, plasma; single SC dose 2 mg; nominal time 6 h; mean; read-out: Plasma Concentration AXN-001
Experimental: For Phase I clinical studies, the 32 mg/mL pharmaceutical composition was dosed subcutaneously. […] Participants were administered a single dose (0.5 mL) of AXN-001 or placebo via subcutaneous (SC) injection into the abdomen. […] Individual plasma concentrations of ANX-001 were determined and used for analyses. Pharmacokinetic (PK) parameters of AXN-001 were determined using Phoenix WinNonlin version 8.3. […]
Bridge positions count the residues as written; N and C are the ends. Square brackets hold non-standard residues; d marks the D form. Peptide text beside a SMILES is read from it. * marks the point of attachment. Phe(2-CONH2) = NC(=O)c1ccccc1C[C@H](N)C(=O)O; Orn(iPr) = CC(C)NCCC[C@H](N)C(=O)O; Oxazole2carbonyl = O=C(c1ncco1)*; 3Pal = N[C@@H](Cc1cccnc1)C(=O)O
endpointName: level at 6 h (ng/mL)
Kindly provide the numeric value in ng/mL only, without the unit symbol.

The compound listed as CC(C)NCCC[C@@H]1NC(=O)[C@@H](NC(=O)[C@H](Cc2ccccc2C(N)=O)NC(=O)[C@H](NC(=O)c2ncco2)C(C)C)CSSC[C@@H](C(=O)N[C@@H](Cc2cccnc2)C(N)=O)NC(=O)[C@H](Cc2ccccc2)NC(=O)[C@@H]2CCCN2C(=O)CNC(=O)[C@H](C(C)C)NC(=O)[C@H](CC(=O)O)NC1=O [AXN-001] (Oxazole2carbonyl-[dV][Phe(2-CONH2)]C[Orn(iPr)]DVGPFC[3Pal]-NH2; disulfide 3-10) shows level at 6 h equal to 4.79

###

Test: Phase I first-in-human study, pharmacokinetics after single ascending subcutaneous doses in healthy volunteers
Type: in vivo
Conditions: human, plasma; single SC dose 4 mg; nominal time 0.17 h; mean; read-out: Plasma Concentration AXN-001
Bridge positions count the residues as written; N and C are the ends. Square brackets hold non-standard residues; d marks the D form. Peptide text beside a SMILES is read from it. * marks the point of attachment. Phe(2-CONH2) = NC(=O)c1ccccc1C[C@H](N)C(=O)O; Orn(iPr) = CC(C)NCCC[C@H](N)C(=O)O; Oxazole2carbonyl = O=C(c1ncco1)*; 3Pal = N[C@@H](Cc1cccnc1)C(=O)O
endpointName: level at 0.17 h (ng/mL)
Your answer is read as ng/mL, so omit the unit and give the number.

Record summary for CC(C)NCCC[C@@H]1NC(=O)[C@@H](NC(=O)[C@H](Cc2ccccc2C(N)=O)NC(=O)[C@H](NC(=O)c2ncco2)C(C)C)CSSC[C@@H](C(=O)N[C@@H](Cc2cccnc2)C(N)=O)NC(=O)[C@H](Cc2ccccc2)NC(=O)[C@@H]2CCCN2C(=O)CNC(=O)[C@H](C(C)C)NC(=O)[C@H](CC(=O)O)NC1=O [AXN-001] (Oxazole2carbonyl-[dV][Phe(2-CONH2)]C[Orn(iPr)]DVGPFC[3Pal]-NH2; disulfide 3-10) : reported level at 0.17 h = 35.3

###

Assay: Phase I first-in-human study, pharmacokinetics after single ascending subcutaneous doses in healthy volunteers
Assay type: in vivo
Settings: human, plasma; single SC dose 4 mg; nominal time 0.33 h; mean; read-out: Plasma Concentration AXN-001
Bridge positions count the residues as written; N and C are the ends. Square brackets hold non-standard residues; d marks the D form. Peptide text beside a SMILES is read from it. * marks the point of attachment. Phe(2-CONH2) = NC(=O)c1ccccc1C[C@H](N)C(=O)O; Orn(iPr) = CC(C)NCCC[C@H](N)C(=O)O; Oxazole2carbonyl = O=C(c1ncco1)*; 3Pal = N[C@@H](Cc1cccnc1)C(=O)O
endpointName: level at 0.33 h (ng/mL)
Entry rule: numbers only, all in ng/mL.

molecule CC(C)NCCC[C@@H]1NC(=O)[C@@H](NC(=O)[C@H](Cc2ccccc2C(N)=O)NC(=O)[C@H](NC(=O)c2ncco2)C(C)C)CSSC[C@@H](C(=O)N[C@@H](Cc2cccnc2)C(N)=O)NC(=O)[C@H](Cc2ccccc2)NC(=O)[C@@H]2CCCN2C(=O)CNC(=O)[C@H](C(C)C)NC(=O)[C@H](CC(=O)O)NC1=O [AXN-001] (Oxazole2carbonyl-[dV][Phe(2-CONH2)]C[Orn(iPr)]DVGPFC[3Pal]-NH2; disulfide 3-10) , level at 0.33 h observed: 87.8

###

Assay: Phase I first-in-human study, pharmacokinetics after single ascending subcutaneous doses in healthy volunteers
Assay type: in vivo
Conditions: human, plasma; single SC dose 2 mg; nominal time 0.25 h; mean; read-out: Plasma Concentration AXN-001
Bridge positions count the residues as written; N and C are the ends. Square brackets hold non-standard residues; d marks the D form. Peptide text beside a SMILES is read from it. * marks the point of attachment. Phe(2-CONH2) = NC(=O)c1ccccc1C[C@H](N)C(=O)O; Orn(iPr) = CC(C)NCCC[C@H](N)C(=O)O; Oxazole2carbonyl = O=C(c1ncco1)*; 3Pal = N[C@@H](Cc1cccnc1)C(=O)O
endpointName: level at 0.25 h (ng/mL)
Use ng/mL as the unit, but write only the number.

CC(C)NCCC[C@@H]1NC(=O)[C@@H](NC(=O)[C@H](Cc2ccccc2C(N)=O)NC(=O)[C@H](NC(=O)c2ncco2)C(C)C)CSSC[C@@H](C(=O)N[C@@H](Cc2cccnc2)C(N)=O)NC(=O)[C@H](Cc2ccccc2)NC(=O)[C@@H]2CCCN2C(=O)CNC(=O)[C@H](C(C)C)NC(=O)[C@H](CC(=O)O)NC1=O [AXN-001] (Oxazole2carbonyl-[dV][Phe(2-CONH2)]C[Orn(iPr)]DVGPFC[3Pal]-NH2; disulfide 3-10) has a reported level at 0.25 h of 31.5
